# System: Klebsiella oxytoca
# PROTOCOL TEXT: MIC, CLSI broth microdilution, clinical isolates
# Type: cell-based
# CONDITION CONTEXT: Klebsiella oxytoca (N = 50)
Property: MIC50; scope: individual compounds
Please answer using a numeric value trailed by its unit.

>  <GIVEN SMILES>
CC(C)(O/N=C(\C(=O)N[C@@H]1C(=O)N2C(C(=O)[O-])=C(C[n+]3ccccc3)CS[C@H]12)c1csc(N)n1)C(=O)O

>  <MIC50>
0.12 µg/mL

$$$$
>  <GIVEN SMILES>
C[C@H]1COc2c(N3CCN(C)CC3)c(F)cc3c(=O)c(C(=O)O)cn1c23

>  <MIC50>
0.03 µg/mL

$$$$

Now, please, on to the next compound.
Consider "NC[C@H]1O[C@H](O[C@H]2[C@H](O)[C@@H](O[C@H]3O[C@H](CO)[C@@H](O)[C@H](N)[C@H]3O)[C@H](N)C[C@@H]2N)[C@H](N)C[C@@H]1O" . Its measured MIC50 is 0.5 µg/mL
